compounds and their reported pIC50
molecular target: Cytochrome P450 26A1 (Homo sapiens, UniProt O43174); test: Inhibition of CYP26A1 in human MCF7 cell microsomes using [3H]ATRA after 1 hr by scintillation counting
Sequence (O43174 whole entry): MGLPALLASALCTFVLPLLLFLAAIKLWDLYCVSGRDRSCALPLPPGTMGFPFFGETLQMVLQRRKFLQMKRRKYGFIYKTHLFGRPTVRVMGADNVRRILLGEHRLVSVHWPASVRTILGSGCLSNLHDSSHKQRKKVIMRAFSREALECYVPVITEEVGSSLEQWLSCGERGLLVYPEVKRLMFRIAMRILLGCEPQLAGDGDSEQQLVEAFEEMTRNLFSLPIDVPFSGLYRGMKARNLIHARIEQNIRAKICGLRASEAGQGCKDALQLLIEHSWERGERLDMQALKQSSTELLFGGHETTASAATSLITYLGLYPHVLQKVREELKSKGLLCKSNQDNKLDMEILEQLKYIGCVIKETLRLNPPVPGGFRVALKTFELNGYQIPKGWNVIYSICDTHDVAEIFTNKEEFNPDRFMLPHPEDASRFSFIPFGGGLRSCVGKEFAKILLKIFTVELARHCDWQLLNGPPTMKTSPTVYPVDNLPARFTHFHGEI
Would you please state pIC50, meaning minus log10 of the concentration in mol/L, as a bare number?

[
  {
    "compound": "COC(=O)C(C)(C)C(c1ccc(Nc2ccccc2)cc1)n1ccnc1 (centres undefined)",
    "pIC50": 8.00
  }
]

Quickly give me recorded pIC50 for COC(=O)C(C)(C)C(c1ccc(Nc2nc3ccccc3s2)cc1)n1ccnc1 (centres undefined)
7.00

Tell me its pIC50 given COC(=O)[C@@H](C)[C@H](c1ccc(Nc2ccc3ccccc3c2)cc1)n1ccnc1 (relative stereo) as the entry.
6.85

For the compound COC(=O)C(C)(C)C(c1ccc(Nc2nc3ccccc3o2)cc1)n1ccnc1 (centres undefined) , give its measured pIC50 value.
8.00

Supply pIC50 value. Item: C[C@H]([C@@H](c1ccc(Nc2nc3ccccc3s2)cc1)n1ccnc1)N(C)C
8.00

Provide pIC50 value for the following compound: COC(=O)C(C)(C)C(c1ccc(Nc2ccc3c(c2)OCO3)cc1)n1ccnc1 (centres undefined)
8.10

Please give the documented pIC50 of CCOc1ccc2ccccc2c1Nc1ccc(C(n2ccnc2)C(C)(C)C(=O)OC)cc1 (centres undefined)
6.90

Return pIC50 (reported value) for this compound: COC(=O)C(C)(C)C(c1ccc(Nc2cccc3ccccc23)cc1)n1ccnc1 (centres undefined)
8.22

For the compound COC(=O)C(C)(C)C(c1ccc(Nc2ccc3cc(OC)ccc3c2)cc1)n1ccnc1 (centres undefined) , give its reported pIC50.
8.10
